Test system: vancomycin-resistant S. aureus (VRSA, 6)
EXPERIMENTAL_PROTOCOL: MIC broth microdilution, VRSA
Provide the reported MIC 50% of each item.
Numbers only, in µg/mL.

Items follow; give MIC 50% for each.
1. CNC(CC(C)C)C(=O)NC1C(=O)NC(CC(N)=O)C(=O)NC2C(=O)NC3C(=O)NC(C(=O)NC(C(=O)O)c4cc(O)c(CNCCOCCOCCN)c(O)c4-c4cc3ccc4O)C(O)c3ccc(c(Cl)c3)Oc3cc2cc(c3OC2OC(CO)C(O)C(O)C2OC2CC(C)(NCc3ccc(-c4ccc(Cl)cc4)cc3)C(O)C(C)O2)Oc2ccc(cc2Cl)C1O (stereo not drawn) [Compound 11]
2. CCCCCCCCCCNCCNC1(C)CC(OC2C(Oc3c4cc5cc3Oc3ccc(cc3Cl)C(O)C3NC(=O)C(NC(=O)C5NC(=O)C(CC(N)=O)NC(=O)C(NC(=O)C(CC(C)C)NC)C(O)c5ccc(c(Cl)c5)O4)c4ccc(O)c(c4)-c4c(cc(O)c(CNCCOCCOCCN)c4O)C(C(=O)O)NC3=O)OC(CO)C(O)C2O)OC(C)C1O (stereo not drawn) [Compound 3]
3. CNC(CC(C)C)C(=O)NC1C(=O)NC(CC(N)=O)C(=O)NC2C(=O)NC3C(=O)NC(C(=O)NC(C(=O)O)c4cc(O)c(CNCCOCCOCCN(C)C)c(O)c4-c4cc3ccc4O)C(O)c3ccc(c(Cl)c3)Oc3cc2cc(c3OC2OC(CO)C(O)C(O)C2OC2CC(C)(NCc3ccc(-c4ccc(Cl)cc4)cc3)C(O)C(C)O2)Oc2ccc(cc2Cl)C1O (stereo not drawn) [Compound 12]
4. CNC(CC(C)C)C(=O)NC1C(=O)NC(CC(N)=O)C(=O)NC2C(=O)NC3C(=O)NC(C(=O)NC(C(=O)O)c4cc(O)c(CNCCOCCOCCN)c(O)c4-c4cc3ccc4O)C(O)c3ccc(c(Cl)c3)Oc3cc2cc(c3OC2OC(CO)C(O)C(O)C2OC2CC(C)(NCc3ccc(OCc4ccc(Cl)c(Cl)c4)cc3)C(O)C(C)O2)Oc2ccc(cc2Cl)C1O (stereo not drawn) [Compound 28]
5. CNC(CC(C)C)C(=O)NC1C(=O)NC(CC(N)=O)C(=O)NC2C(=O)NC3C(=O)NC(C(=O)NC(C(=O)O)c4cc(O)c(CNCCOCCOCCOCCN(C)C)c(O)c4-c4cc3ccc4O)C(O)c3ccc(c(Cl)c3)Oc3cc2cc(c3OC2OC(CO)C(O)C(O)C2OC2CC(C)(NCc3ccc(-c4ccc(Cl)cc4)cc3)C(O)C(C)O2)Oc2ccc(cc2Cl)C1O (stereo not drawn) [Compound 14]
6. CNC(CC(C)C)C(=O)NC1C(=O)NC(CC(N)=O)C(=O)NC2C(=O)NC3C(=O)NC(C(=O)NC(C(=O)NCCOCCOCCN(C)C)c4cc(O)cc(O)c4-c4cc3ccc4O)C(O)c3ccc(c(Cl)c3)Oc3cc2cc(c3OC2OC(CO)C(O)C(O)C2OC2CC(C)(NCc3ccc(-c4ccc(Cl)cc4)cc3)C(O)C(C)O2)Oc2ccc(cc2Cl)C1O (stereo not drawn) [Compound 10]

[reply]
4
1
8
2
8
4

Items follow; give MIC 50% for each.
1. CCCCCCCCCCNCCNC1(C)CC(OC2C(Oc3c4cc5cc3Oc3ccc(cc3Cl)C(O)C3NC(=O)C(NC(=O)C5NC(=O)C(CC(N)=O)NC(=O)C(NC(=O)C(CC(C)C)NC)C(O)c5ccc(c(Cl)c5)O4)c4ccc(O)c(c4)-c4c(cc(O)c(CNCCOCCOCC[N+](C)(C)C)c4O)C(C(=O)O)NC3=O)OC(CO)C(O)C2O)OC(C)C1O (stereo not drawn) [Compound 1]
2. CCCCCCCCCCNCCNC1(C)CC(OC2C(Oc3c4cc5cc3Oc3ccc(cc3Cl)C(O)C3NC(=O)C(NC(=O)C5NC(=O)C(CC(N)=O)NC(=O)C(NC(=O)C(CC(C)C)NC)C(O)c5ccc(c(Cl)c5)O4)c4ccc(O)c(c4)-c4c(O)cc(O)cc4C(C(=O)NCCOCCOCCN)NC3=O)OC(CO)C(O)C2O)OC(C)C1O (stereo not drawn) [Compound 2]
3. CNC(CC(C)C)C(=O)NC1C(=O)NC(CC(N)=O)C(=O)NC2C(=O)NC3C(=O)NC(C(=O)NC(C(=O)O)c4cc(O)c(CNCCOCCOCC[N+](C)(C)C)c(O)c4-c4cc3ccc4O)C(O)c3ccc(c(Cl)c3)Oc3cc2cc(c3OC2OC(CO)C(O)C(O)C2OC2CC(C)(NCc3ccc(OCc4ccc(Cl)c(Cl)c4)cc3)C(O)C(C)O2)Oc2ccc(cc2Cl)C1O (stereo not drawn) [Compound 29]
4. CNC(CC(C)C)C(=O)NC1C(=O)NC(CC(N)=O)C(=O)NC2C(=O)NC3C(=O)NC(C(=O)NC(C(=O)NCCOCCOCCN)c4cc(O)cc(O)c4-c4cc3ccc4O)C(O)c3ccc(c(Cl)c3)Oc3cc2cc(c3OC2OC(CO)C(O)C(O)C2OC2CC(C)(NCc3ccc(OCc4ccc(Cl)c(Cl)c4)cc3)C(O)C(C)O2)Oc2ccc(cc2Cl)C1O (stereo not drawn) [Compound 27]
5. CNC(CC(C)C)C(=O)NC1C(=O)NC(CC(N)=O)C(=O)NC2C(=O)NC3C(=O)NC(C(=O)NC(C(=O)NCCOCCOCCN)c4cc(O)cc(O)c4-c4cc3ccc4O)C(O)c3ccc(c(Cl)c3)Oc3cc2cc(c3OC2OC(CO)C(O)C(O)C2OC2CC(C)(NCc3ccc(-c4ccc(Cl)cc4)cc3)C(O)C(C)O2)Oc2ccc(cc2Cl)C1O (stereo not drawn) [Compound 9]
6. CNC(CC(C)C)C(=O)NC1C(=O)NC(CC(N)=O)C(=O)NC2C(=O)NC3C(=O)NC(C(=O)NC(C(=O)O)c4cc(O)c(CNCCOCCOCC[N+](C)(C)C)c(O)c4-c4cc3ccc4O)C(O)c3ccc(c(Cl)c3)Oc3cc2cc(c3OC2OC(CO)C(O)C(O)C2OC2CC(C)(NCc3ccc(-c4ccc(Cl)cc4)cc3)C(O)C(C)O2)Oc2ccc(cc2Cl)C1O (stereo not drawn) [Compound 13]

[reply]
1: 2; 2: 1; 3: 4; 4: 2; 5: 4; 6: 8

----------
Test system: B. anthracis Sterne 105
Type: cell-based, Bacillus anthracis
CONDITION_LABEL: Tween 80 0.002% medium, serum condition not stated
READOUT_KIND: MIC (µg/mL)
Answers are plain numbers, in µg/mL.

A selection of reference data follows.
CNC(CC(C)C)C(=O)NC1C(=O)NC(CC(N)=O)C(=O)NC2C(=O)NC3C(=O)NC(C(=O)NC(C(=O)O)c4cc(O)c(CNCCOCCOCC[N+](C)(C)C)c(O)c4-c4cc3ccc4O)C(O)c3ccc(c(Cl)c3)Oc3cc2cc(c3OC2OC(CO)C(O)C(O)C2OC2CC(C)(NCc3ccc(OCc4ccc(Cl)c(Cl)c4)cc3)C(O)C(C)O2)Oc2ccc(cc2Cl)C1O (stereo not shown) ... 0.03
CNC(CC(C)C)C(=O)NC1C(=O)NC(CC(N)=O)C(=O)NC2C(=O)NC3C(=O)NC(C(=O)NC(C(=O)NCCOCCOCCOCCN(C)C)c4cc(O)c(CNCCOCCOCCOCCN(C)C)c(O)c4-c4cc3ccc4O)C(O)c3ccc(c(Cl)c3)Oc3cc2cc(c3OC2OC(CO)C(O)C(O)C2OC2CC(C)(NCc3ccc(-c4ccc(Cl)cc4)cc3)C(O)C(C)O2)Oc2ccc(cc2Cl)C1O (stereo not shown) ... 0.12
CCCCCCCCCCNCCNC1(C)CC(OC2C(Oc3c4cc5cc3Oc3ccc(cc3Cl)C(O)C3NC(=O)C(NC(=O)C5NC(=O)C(CC(N)=O)NC(=O)C(NC(=O)C(CC(C)C)NC)C(O)c5ccc(c(Cl)c5)O4)c4ccc(O)c(c4)-c4c(O)cc(O)cc4C(C(=O)NCCOCCOCCN)NC3=O)OC(CO)C(O)C2O)OC(C)C1O (stereo not shown) ... 0.03

[ask] Give its MIC value. Item: CNC(CC(C)C)C(=O)NC1C(=O)NC(CC(N)=O)C(=O)NC2C(=O)NC3C(=O)NC(C(=O)NC(C(=O)NCCOCCOCCOCCN)c4cc(O)c(CNCCOCCOCCOCCN)c(O)c4-c4cc3ccc4O)C(O)c3ccc(c(Cl)c3)Oc3cc2cc(c3OC2OC(CO)C(O)C(O)C2OC2CC(C)(NCc3ccc(-c4ccc(Cl)cc4)cc3)C(O)C(C)O2)Oc2ccc(cc2Cl)C1O (stereo not shown)
[reply] 0.03

----------
System: S. aureus ATCC 25923
EXPERIMENTAL_PROTOCOL: Neutropenic murine thigh infection model
CONDITION_LABEL: 1 mg/kg single intraperitoneal dose; 24 h time kill
Provide the reported AUCc-t (AUC difference between control and treated animals) of each item.

A selection of reference data follows.
CCCCCCCCCCNCCNC1(C)CC(OC2C(Oc3c4cc5cc3Oc3ccc(cc3Cl)C(O)C3NC(=O)C(NC(=O)C5NC(=O)C(CC(N)=O)NC(=O)C(NC(=O)C(CC(C)C)NC)C(O)c5ccc(c(Cl)c5)O4)c4ccc(O)c(c4)-c4c(cc(O)c(CNCCOCCOCC[N+](C)(C)C)c4O)C(C(=O)O)NC3=O)OC(CO)C(O)C2O)OC(C)C1O (stereo not drawn) [Compound 1] ... 28 (Log10 CFU/thigh)/hr
CNC(CC(C)C)C(=O)NC1C(=O)NC(CC(N)=O)C(=O)NC2C(=O)NC3C(=O)NC(C(=O)NC(C(=O)O)c4cc(O)c(CNCCOCCOCCOCCN(C)C)c(O)c4-c4cc3ccc4O)C(O)c3ccc(c(Cl)c3)Oc3cc2cc(c3OC2OC(CO)C(O)C(O)C2OC2CC(C)(NCc3ccc(-c4ccc(Cl)cc4)cc3)C(O)C(C)O2)Oc2ccc(cc2Cl)C1O (stereo not drawn) [Compound 14] ... 11.4 (Log10 CFU/thigh)/hr

Next up:
[ask] Give its AUCc-t (AUC difference between control and treated animals) value. Item: CNC(CC(C)C)C(=O)NC1C(=O)NC(CC(N)=O)C(=O)NC2C(=O)NC3C(=O)NC(C(=O)NC(C(=O)O)c4cc(O)c(CNCCOCCOCCN)c(O)c4-c4cc3ccc4O)C(O)c3ccc(c(Cl)c3)Oc3cc2cc(c3OC2OC(CO)C(O)C(O)C2OC2CC(C)(NCc3ccc(OCc4ccc(Cl)c(Cl)c4)cc3)C(O)C(C)O2)Oc2ccc(cc2Cl)C1O (stereo not drawn) [Compound 28]
[reply] 19.1 (Log10 CFU/thigh)/hr
